molecular target: his-labeled human IL-13 (immunogen A) (human) (UniProt P35225); experiment: cell-based or functional assay
measured_quantity: Periostin (pg/mL), MRCS cells + IL-13 5 ng/mL; antibody at 0.004 nM
A number alone suffices; assume pg/mL.

Give reported Periostin (pg/mL), MRCS cells + IL-13 5 ng/mL; antibody at 0.004 nM value for c29D9H8 (mouse-human chimeric IL-13 antibody) (antibody, V domains shown) VH: QVQLQQSGAELVRPGASVTLSCKASGYTFTDYEMHWVKQTPVHGLEWIGGIDPETGGTASNQKFKGKAILTADKSSSTAYMELRSLTSEDSAVYYCTSGDYFGGGPFAYWGQGTLVTVSA VL: DIKMTQSPSSMYASLGERVTITCKASQDINSYLSWFQQKPGKSPKTLIYRANRLVDGVPSRFSGSGSGQDYSLTISSLDYEDMGIYYCLQYDEFPYTFGGGTKLEIK
3480
